Sourced from patent US20230219986A1

- TARGET OR SYSTEM: wild-type EGFR (Homo sapiens, UniProt P00533)
- Construct: purchased Signalchem
- Sequence (P00533 25-1210): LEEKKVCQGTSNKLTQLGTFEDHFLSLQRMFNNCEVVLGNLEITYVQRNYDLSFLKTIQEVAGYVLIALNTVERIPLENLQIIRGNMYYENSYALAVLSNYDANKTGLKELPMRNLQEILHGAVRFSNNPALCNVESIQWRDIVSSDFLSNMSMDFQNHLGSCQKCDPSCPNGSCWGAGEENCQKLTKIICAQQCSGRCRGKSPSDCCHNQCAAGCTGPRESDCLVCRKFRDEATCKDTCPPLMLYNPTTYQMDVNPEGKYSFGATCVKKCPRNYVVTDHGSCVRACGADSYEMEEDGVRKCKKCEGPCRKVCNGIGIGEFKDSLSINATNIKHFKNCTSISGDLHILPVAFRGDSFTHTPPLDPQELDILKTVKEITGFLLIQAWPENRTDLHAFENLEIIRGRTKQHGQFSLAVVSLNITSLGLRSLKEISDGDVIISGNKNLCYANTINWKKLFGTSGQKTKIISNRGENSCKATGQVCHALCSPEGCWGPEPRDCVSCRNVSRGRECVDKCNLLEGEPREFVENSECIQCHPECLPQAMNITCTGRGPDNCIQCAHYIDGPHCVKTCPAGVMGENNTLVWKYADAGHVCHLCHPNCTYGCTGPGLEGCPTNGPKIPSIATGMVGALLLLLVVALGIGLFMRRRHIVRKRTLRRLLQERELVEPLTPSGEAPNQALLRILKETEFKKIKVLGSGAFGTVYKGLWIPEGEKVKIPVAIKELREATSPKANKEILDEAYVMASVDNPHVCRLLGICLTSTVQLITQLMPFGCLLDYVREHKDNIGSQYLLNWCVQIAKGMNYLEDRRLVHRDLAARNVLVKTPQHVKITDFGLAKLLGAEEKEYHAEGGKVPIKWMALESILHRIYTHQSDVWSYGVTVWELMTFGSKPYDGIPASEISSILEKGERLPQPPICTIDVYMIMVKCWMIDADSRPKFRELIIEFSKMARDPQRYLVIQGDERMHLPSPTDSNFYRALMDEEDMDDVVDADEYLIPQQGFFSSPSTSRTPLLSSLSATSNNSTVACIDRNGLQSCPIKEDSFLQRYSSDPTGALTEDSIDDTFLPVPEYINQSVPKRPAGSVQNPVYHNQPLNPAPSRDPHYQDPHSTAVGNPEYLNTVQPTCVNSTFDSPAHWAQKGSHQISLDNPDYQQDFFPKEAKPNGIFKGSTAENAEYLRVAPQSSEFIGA
- TEST METHOD NOTES: Enzymology experiment in vitro (HTRF/FRET kinase activity), wild-type EGFR
- Assay type: biochemical
- CONDITIONS USED: HTRF KinEASE-TK, read-out: EGFR (WT) IC50
I'd be grateful if you could share measured pIC50 for these entries.
# log scale: pIC50 equals minus log10 of the concentration in mol/L

Enquiry: Please indicate pIC50 recorded for COc1cc(N2CCC3(CC2)CN(C(C)C)CCO3)c(-c2cnn(C)c2)cc1Nc1ncc(Br)c(Nc2ccc3nccnc3c2P(C)(C)=O)n1 [compound 202]
Return: 8.43

Enquiry: Give a short answer stating reported pIC50 for COc1cc(N2CCC3(CC2)CN(C)CC(C)O3)c(-c2cnn(C)c2)cc1Nc1ncc(Br)c(Nc2ccc3nccnc3c2P(C)(C)=O)n1 (racemic) [compound 217] .
Return: 8.41

Enquiry: Read the entry Cn1cc(-c2cc(Nc3ncc(Br)c(Nc4ccc5nccnc5c4P(C)(C)=O)n3)c3c(c2N2CCOCC2)CCCO3)cn1 [compound 51] and write its reported pIC50.
Return: 6.95

Enquiry: State its pIC50 for this molecule: COc1cc(N2CCOCC2)c(-c2cnn(C)c2)nc1Nc1ncc(C)c(Nc2ccc3nccnc3c2P(C)(C)=O)n1 [compound 71]
Return: 7.41

Enquiry: Return the recorded pIC50 value; entry: COc1cc(N2CCOCC2)c(-c2cnoc2)cc1Nc1ncc(Br)c(Nc2ccc3nccnc3c2P(C)(C)=O)n1 [compound 19]
Return: 7.41

Enquiry: Using known records, supply pIC50 for COc1cc(N2CCC(N(C)C)C(F)C2)c(-c2cnn(C)c2)cc1Nc1ncc(Br)c(Nc2ccc3nccnc3c2P(C)(C)=O)n1 (stereo not drawn) [compound 216]
Return: 8.77

Enquiry: Complete the entry with pIC50 for COc1cc(N2CCC3(CCN(CCF)CC3)CC2)c(-c2cnn(C)c2F)cc1Nc1ncc(Br)c(Nc2ccc3nccnc3c2P(C)(C)=O)n1 [compound 231]
Return: 8.95

Enquiry: Tell us which pIC50 value is on record for COc1cc(N2CCC(OCC3CC3)CC2)c(-c2cnn(C)c2)cc1Nc1ncc(Br)c(Nc2ccc3nccnc3c2P(C)(C)=O)n1 [compound 156]
Return: 7.48

Enquiry: Fill in reported pIC50 for this entry: COc1cc(N2CCC3(CCN(CC4(F)CC4)CC3)CC2)c(-c2cnn(C)c2)cc1Nc1ncc(Br)c(Nc2ccc3nccnc3c2P(C)(C)=O)n1 [compound 242]
Return: 8.62

====

- TARGET OR SYSTEM: L858R/T790M/C797S triple mutant EGFR (Homo sapiens, UniProt P00533, C797S/L858R/T790M)
- Construct: purchased Signalchem
- Sequence (P00533 25-1210 T790M/C797S/L858R): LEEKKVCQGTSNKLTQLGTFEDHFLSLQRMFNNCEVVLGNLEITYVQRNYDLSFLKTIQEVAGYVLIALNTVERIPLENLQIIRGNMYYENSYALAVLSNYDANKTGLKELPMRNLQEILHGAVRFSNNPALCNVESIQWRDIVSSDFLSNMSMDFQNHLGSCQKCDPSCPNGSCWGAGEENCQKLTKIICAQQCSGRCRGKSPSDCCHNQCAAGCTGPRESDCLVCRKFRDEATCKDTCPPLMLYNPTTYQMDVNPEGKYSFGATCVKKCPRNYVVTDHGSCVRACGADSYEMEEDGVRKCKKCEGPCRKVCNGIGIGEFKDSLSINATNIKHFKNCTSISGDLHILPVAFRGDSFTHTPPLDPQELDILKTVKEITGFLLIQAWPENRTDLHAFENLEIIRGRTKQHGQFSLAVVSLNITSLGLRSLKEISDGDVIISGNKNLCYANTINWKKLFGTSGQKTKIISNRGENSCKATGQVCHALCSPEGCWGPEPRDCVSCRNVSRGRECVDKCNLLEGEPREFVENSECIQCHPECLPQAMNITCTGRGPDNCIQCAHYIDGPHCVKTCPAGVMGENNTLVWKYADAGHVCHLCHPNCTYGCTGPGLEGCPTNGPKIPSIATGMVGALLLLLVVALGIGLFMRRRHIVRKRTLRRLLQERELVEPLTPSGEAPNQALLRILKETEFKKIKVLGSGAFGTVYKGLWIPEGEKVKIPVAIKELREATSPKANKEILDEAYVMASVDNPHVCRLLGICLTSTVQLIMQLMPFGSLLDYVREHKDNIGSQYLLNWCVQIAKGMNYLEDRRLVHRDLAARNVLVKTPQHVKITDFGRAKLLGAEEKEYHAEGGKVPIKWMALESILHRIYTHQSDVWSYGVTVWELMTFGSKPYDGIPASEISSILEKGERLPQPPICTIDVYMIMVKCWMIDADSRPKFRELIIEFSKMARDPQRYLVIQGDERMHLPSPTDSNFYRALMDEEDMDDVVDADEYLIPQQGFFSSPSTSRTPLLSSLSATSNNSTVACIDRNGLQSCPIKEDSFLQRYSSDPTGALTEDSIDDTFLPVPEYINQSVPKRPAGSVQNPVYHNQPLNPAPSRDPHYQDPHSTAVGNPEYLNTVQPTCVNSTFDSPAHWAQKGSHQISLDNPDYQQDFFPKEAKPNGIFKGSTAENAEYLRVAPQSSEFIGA
- TEST METHOD NOTES: Enzymology experiment in vitro (HTRF/FRET kinase activity), L858R/T790M/C797S triple mutant EGFR
- Format: biochemical
- CONDITIONS USED: HTRF KinEASE-TK, read-out: EGFR (L858R/T790M/C797S) IC50
ENDPOINT LABEL: IC50 (nM)
Reply numerically in nM, unit not repeated.

Enquiry: Consider the compound COc1cc(N2CCOCC2)c(-c2cnn(C)c2)cc1Nc1ncc(C2CC2)c(Nc2ccc3nccnc3c2P(C)(C)=O)n1 and give its recorded IC50.
Return: 0.31

Enquiry: Quickly give me recorded IC50 for COc1cc(N2CCN(C(C)C)CC2)c(-c2cnn(C)c2)cc1Nc1ncc(Br)c(Nc2ccc3nccnc3c2P(C)(C)=O)n1
Return: 0.09

Enquiry: Identify the reported IC50 for the following entry. COc1cc(N2CCC3(CCN(CC(F)F)CC3)CC2)c(-c2cnn(C)c2)cc1Nc1ncc(Br)c(Nc2ccc3nccnc3c2P(C)(C)=O)n1
Return: 3.36
